# method_description: Cmax in Lewis rat at 10 mg/kg, po
# Assay type: ADME, organism-based
# Parameters: dose 10 mg/kg, route oral
# experimental_conditions: in vivo
quantity_measured: Cmax (ng/mL)
Respond with the bare value in ng/mL.

For the compound `C[C@H](N)CNc1nc(-c2ccncc2)cc2cnccc12` , give its measured Cmax value.
53

---

# method_description: Elimination half life in Lewis rat at 5 mg/kg, iv
# Format: ADME, organism-based
# Design: dose 5 mg/kg, route intravenous
# experimental_conditions: in vivo, read-out: beta t1/2 (converted)
quantity_measured: half-life
Answer as a quantity: numeral, then unit.

Give recorded half-life. `C[C@H](N)CNc1nc(-c2ccncc2)cc2cnccc12`
8.1 h

---

For each record, write down the corresponding IC50.
# target_under_test: Protein kinase C eta type (Homo sapiens)
# Sequence (P24723 whole entry): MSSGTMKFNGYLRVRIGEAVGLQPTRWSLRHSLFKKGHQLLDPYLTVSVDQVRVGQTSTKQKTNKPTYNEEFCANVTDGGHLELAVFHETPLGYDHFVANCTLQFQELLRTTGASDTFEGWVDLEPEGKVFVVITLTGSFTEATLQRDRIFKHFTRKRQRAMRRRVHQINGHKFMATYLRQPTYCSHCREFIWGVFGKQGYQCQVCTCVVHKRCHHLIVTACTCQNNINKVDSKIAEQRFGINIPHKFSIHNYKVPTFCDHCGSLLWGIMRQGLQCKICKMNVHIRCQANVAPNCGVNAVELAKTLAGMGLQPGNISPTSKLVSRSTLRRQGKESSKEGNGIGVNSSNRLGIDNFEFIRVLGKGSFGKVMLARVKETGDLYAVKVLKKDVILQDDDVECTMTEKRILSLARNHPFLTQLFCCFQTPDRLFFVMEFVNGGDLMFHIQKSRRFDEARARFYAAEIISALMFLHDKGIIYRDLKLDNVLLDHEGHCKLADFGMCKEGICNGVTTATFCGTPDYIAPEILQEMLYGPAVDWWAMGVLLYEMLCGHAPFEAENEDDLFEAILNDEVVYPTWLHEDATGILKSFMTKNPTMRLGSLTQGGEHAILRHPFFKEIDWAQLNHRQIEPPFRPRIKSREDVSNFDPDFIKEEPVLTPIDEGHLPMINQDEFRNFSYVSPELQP
# method_description: Inhibition of recombinant human PKCeta assessed as [33P]-ATP incorporation into tridecapeptide substrate after 60 mins by scintillation proximity assay
Write the number in nM without appending the unit.

Tell me its IC50 given `CNCCNc1nc(-c2ccncc2)cc2cnccc12` as the entry.
93

Quote IC50 reported for `Cc1cnccc1-c1cc2cnccc2c(NCC(C)(C)N)n1` please.
52

Give IC50 for `NCCOc1nc(-c2ccncc2)cc2cnccc12`
82

For the molecule `O=C1CN(c2nc(-c3ccncc3)cc3cnccc23)CCN1` , give its reported IC50.
735

Report IC50, nothing else, for this molecule: `CC(C)(N)CNc1nc(-c2ccnc(N)c2)cc2cnccc12`
60

State, in one line, measured IC50 of `OCCNc1nc(-c2ccncc2)cc2cnccc12`
188

Quick one: give measured IC50 for NC(CNc1nc(-c2ccncc2)cc2cnccc12)Cc1ccccc1 (configuration not stated)
452

Provide IC50 value for the following molecule: `CC(C)(N)CNc1nc(-c2ccncc2F)cc2cnccc12`
18

Supply IC50 value. Item: `c1cc(-c2cc3cnccc3c(N3CCCNCC3)n2)ccn1`
4

Specify IC50 for `CC(C)(N)CNc1nc(-c2ccncc2Cl)cc2cnccc12` and stop.
15

Please indicate IC50 recorded for `NCCNc1nc(-c2ccncc2)cc2ncccc12`
401

---

# method_description: Clearance in Lewis rat at 5 mg/kg, iv
# Format: ADME, organism-based
# Parameters: dose 5 mg/kg, route intravenous
# experimental_conditions: in vivo
quantity_measured: clearance (mL/min/kg)
The answer is to be given in mL/min/kg; state only the numeric part.

Consider the compound `C[C@H](N)CNc1nc(-c2ccncc2)cc2cnccc12` . State its measured clearance.
49

---

# target_under_test: Protein kinase C alpha type (Homo sapiens)
# method_description: Inhibition of recombinant human PKCalpha assessed as [33P]-ATP incorporation into tridecapeptide substrate after 60 mins by scintillation proximity assay
pIC50: −log10 of the molar value.
Could you please report measured pIC50 for the items listed next?

State the measured pIC50 (Protein kinase C alpha type (Homo sapiens)) of `CC(C)(N)CNc1nc(-c2ccncc2Cl)cc2cnccc12`
< 6.00

Report pIC50 under test system Protein kinase C alpha type (Homo sapiens) for `CC(C)(N)CNc1nc(-c2ccnc(N)c2)cc2cnccc12` .
6.42

// fetch pIC50; item: `CC(C)Nc1cc(-c2cc3cnccc3c(NCC(C)(C)N)n2)ccn1` ; system: Protein kinase C alpha type (Homo sapiens)
< 6.00

Under Protein kinase C alpha type (Homo sapiens), report pIC50 for NC(CNc1nc(-c2ccncc2)cc2cnccc12)Cc1ccccc1 (configuration not stated)
6.09

Report measured pIC50 on Protein kinase C alpha type (Homo sapiens); entry: `NCCNc1nc(-c2ccncc2)nc2cnccc12`
< 6.00

Provide measured pIC50 on Protein kinase C alpha type (Homo sapiens) for `CN(CCN)c1nc(-c2ccncc2)cc2cnccc12` please.
< 6.00

Return reported pIC50 for target or system Protein kinase C alpha type (Homo sapiens), item `NCCOc1nc(-c2ccncc2)cc2cnccc12` .
< 6.00

Give the observed pIC50 of `OCCNc1nc(-c2ccncc2)cc2cnccc12` for Protein kinase C alpha type (Homo sapiens).
< 6.00

Provide pIC50, recorded with Protein kinase C alpha type (Homo sapiens), of `c1cc(-c2cc3cnccc3c(N3CCNCC3)n2)ccn1`
< 6.00

Report pIC50 from Protein kinase C alpha type (Homo sapiens) testing of `Cc1cnccc1-c1cc2cnccc2c(NCC(C)(C)N)n1`
< 6.00

Give the observed pIC50 of `O=C1CN(c2nc(-c3ccncc3)cc3cnccc23)CCN1` for Protein kinase C alpha type (Homo sapiens).
< 6.00

State pIC50 (Protein kinase C alpha type (Homo sapiens)) of `C[C@H](N)CNc1nc(-c2ccncc2)cc2cnccc12` .
6.08

Reference source for all entries: ChEMBL document CHEMBL2146454
